- test_details: viability of HCT116 lacking mutant beta-catenin – cell-based, human colon tumor, dose response (AID 1045);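 further: HCT116 colon tumor cells with beta catenin knocked out; cells exposed to compound for 60 hours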
- Type: functional
Calls of active or inactive are those of the source. How the calls were made is not given here.
measured_property: EC50

Past entries and their recorded results:
CC1=C(C(=O)Nc2ccc([N+](=O)[O-])cc2)C(c2cccc(C(F)(F)F)c2)N=C(S)N1c1ccccc1 (stereo not given): 11.5 µM (active)
COc1cc2c(-c3ccc(O)cc3)nc3c(c(C)nn3-c3ccccc3)c2cc1OC: 8.96 µM (active)

Go through the items and report each one's EC50.
1. CC(=O)Nc1sc(C)c(C)c1C(=O)OCC(=O)Nc1cc(S(=O)(=O)N2CCCCC2)ccc1Cl
2. Cc1ccc(-c2nc3ccccc3o2)cc1NC(=S)NC(=O)c1cc2ccccc2o1

1. 133 µM (active)
2. 4.68 µM (active)

Documented EC50 of CC(=O)Nc1cccc(NC(=O)Cc2nc(-c3ccccc3)sc2-c2ccc(C)cc2)c1 : 16.6 µM (active)
